Assign activity at 100 µM to each entry below.
Tested on: hTERT
experiment_notes: Secreted alkaline phosphatase (SEAP) assay, PhTERT-SEAP (H1299)
Format: cell-based
test_context: Homo sapiens, NCI-H1299, Conc. 100 μM, 24 hours, read-out: Relative SEAP activity (%) (converted)
Could you give the number and then its unit, please?

QUERY: Requested field: activity at 100 µM. Item: Cc1ccc(C(=O)Nc2c(NC(=O)CN3CCSCC3)ccc3c2C(=O)c2ccccc2C3=O)cc1
RESULT: 12.2%

QUERY: Quick one: activity at 100 µM of O=C1c2c(O)ccc(O)c2C(=O)c2c(NCCNCCO)ccc(NCCNCCO)c21 [mitoxantrone, reference compound] ?
RESULT: 7.19%

QUERY: // activity at 100 µM lookup, key: O=C(CCl)Nc1ccc2c(c1NC(=O)c1cccc(Cl)c1)C(=O)c1ccccc1C2=O
RESULT: 3.51%

QUERY: Name the recorded activity at 100 µM for O=C(CCl)Nc1ccc2c(c1NC(=O)c1cccc(F)c1)C(=O)c1ccccc1C2=O .
RESULT: 0.97%

* * *

System: SK-MEL-5
experiment_notes: NCI drug screen, SK-MEL-5
Format: cell-based, human
test_context: SK-MEL-5 (Melanoma); 1.00E−5 Molar
Output met for records whose Growth Percent is lower than 60%, not met for records at or above 60%.

QUERY: In the record for O=C(CCl)Nc1ccc2c(c1NC(=O)Cc1ccccc1)C(=O)c1ccccc1C2=O , is Growth Percent less than 60%?
RESULT: met

QUERY: Please state whether Growth Percent is below 60% for Cc1ccc(C(=O)Nc2c(NC(=O)CN3CCN(C)CC3)ccc3c2C(=O)c2ccccc2C3=O)cc1
RESULT: met

QUERY: Here's an entry: Cc1ccc(C(=O)Nc2ccc3c(c2NC(=O)c2ccc(C)cc2)C(=O)c2ccccc2C3=O)cc1 . Is its Growth Percent below 60%?
RESULT: not met

QUERY: Hello, is Growth Percent of the following compound strictly smaller than 60%? Cc1ccc(C(=O)Nc2c(NC(=O)CCl)ccc3c2C(=O)c2ccccc2C3=O)cc1
RESULT: met

* * *

I'd be grateful if you could share measured Growth Percent for these entries.
System: SW-620
experiment_notes: NCI drug screen, SW-620
Format: cell-based, human
test_context: SW-620 (Colon Cancer); 1.00E−5 Molar

QUERY: Which value of Growth Percent has been reported for Cc1ccc(C(=O)Nc2c(NC(=O)CN3CCN(C)CC3)ccc3c2C(=O)c2ccccc2C3=O)cc1 in the records?
RESULT: 39.17%

QUERY: Can you look up the measured Growth Percent of Cc1ccc(C(=O)Nc2c(NC(=O)CN3CCCC3)ccc3c2C(=O)c2ccccc2C3=O)cc1 for me?
RESULT: 82.29%

QUERY: Given the compound Cc1ccc(C(=O)Nc2ccc3c(c2NC(=O)c2ccc(C)cc2)C(=O)c2ccccc2C3=O)cc1 , what is its reported Growth Percent?
RESULT: 93.79%

QUERY: For O=C(CCl)Nc1ccc2c(c1NC(=O)Cc1ccccc1)C(=O)c1ccccc1C2=O , what is its reported Growth Percent?
RESULT: 83.41%

QUERY: Param item = Cc1ccc(C(=O)Nc2c(NC(=O)CCl)ccc3c2C(=O)c2ccccc2C3=O)cc1 ; retrieve measured Growth Percent.
RESULT: −43.27%
